Data provenance is PubChem BioAssay (NCI).

Tested on: NCI-H322M lung
Test: NCI-60 one-dose screen, 48 h
Details: 10 µM unless noted
Compounds without any hit were thinned out: in the full panel of roughly 83,000, 20% have a hit. The source made the active and inactive calls. The calls were made as follows: active = growth percent below 10; inactive = the rest.
Outcomes: 1.0 = active, 0.0 = inactive

[
  {
    "COMPOUND": "O=Cc1ncc(-c2ccc(C(F)(F)F)cc2)c(NC2CCCCCC2)n1",
    "ASSIGNED_CATEGORY": 1.0
  },
  {
    "COMPOUND": "CC(=O)c1ccccc1NC(=O)C(C)(c1ccccc1)c1ccccc1",
    "ASSIGNED_CATEGORY": 0.0
  },
  {
    "COMPOUND": "CCSc1nc(-c2cccs2)n2nc(-c3ccco3)cc2n1",
    "ASSIGNED_CATEGORY": 0.0
  },
  {
    "COMPOUND": "Nc1ncnc2c1CN(Cc1ccccc1)CC2",
    "ASSIGNED_CATEGORY": 0.0
  },
  {
    "COMPOUND": "Cc1ccc(S(=O)(=O)NCCN2c3nc4ccccc4cc3Sc3cc4ccccc4nc32)cc1",
    "ASSIGNED_CATEGORY": 0.0
  },
  {
    "COMPOUND": "NS(=O)(=O)c1ccc(-n2ncc3c(SCc4ccccc4)ncnc32)cc1",
    "ASSIGNED_CATEGORY": 0.0
  },
  {
    "COMPOUND": "COc1ccccc1-n1c(-c2ccc(O)cc2C)cn2c3c(=O)[nH]c(=O)n(C)c3nc12",
    "ASSIGNED_CATEGORY": 0.0
  },
  {
    "COMPOUND": "Clc1ccc2[nH]cc(-c3cncn3CCc3ccccc3)c2c1",
    "ASSIGNED_CATEGORY": 0.0
  },
  {
    "COMPOUND": "Oc1ccc(/C=N/Nc2nc3ccccc3s2)c(O)c1",
    "ASSIGNED_CATEGORY": 0.0
  },
  {
    "COMPOUND": "COc1ccc2c(c1)CC/C(=C\\c1ccc(OCC(=O)Nc3nc4ccccc4s3)cc1)C2=O",
    "ASSIGNED_CATEGORY": 0.0
  },
  {
    "COMPOUND": "O=C(O)c1ccc(CNS(=O)(=O)c2ccc3ccccc3c2)cc1",
    "ASSIGNED_CATEGORY": 0.0
  },
  {
    "COMPOUND": "COCCOCCOCCOCCOc1ccc2c(c1)C(=O)c1nc3ncccc3c(=O)n1-2",
    "ASSIGNED_CATEGORY": 1.0
  },
  {
    "COMPOUND": "CCOc1cc(/C=C/C(=O)C(C(=O)/C=C/c2ccc(OC(=O)CNc3nc4ccccc4[nH]3)c(OCC)c2)C(=O)CNc2nc3ccccc3[nH]2)ccc1OC(=O)CNc1nc2ccccc2[nH]1",
    "ASSIGNED_CATEGORY": 0.0
  },
  {
    "COMPOUND": "CC1C(=O)NC2=Nc3ccccc3C(=O)NN21 (stereo not drawn)",
    "ASSIGNED_CATEGORY": 0.0
  },
  {
    "COMPOUND": "N#CC(C#N)C(C#N)C#N",
    "ASSIGNED_CATEGORY": 0.0
  },
  {
    "COMPOUND": "Cc1ccc(/C=C(/C#N)n2nnc3ncccc32)cc1",
    "ASSIGNED_CATEGORY": 0.0
  },
  {
    "COMPOUND": "O=C(C(=O)c1cc(Br)ccc1O)c1cc(Br)ccc1O",
    "ASSIGNED_CATEGORY": 0.0
  },
  {
    "COMPOUND": "COc1ccc2ncccc2c1Cc1c(OC)ccc2ncccc12",
    "ASSIGNED_CATEGORY": 0.0
  },
  {
    "COMPOUND": "COc1ccc(C(=O)/C=C/c2ccc(C)cc2)cc1OC",
    "ASSIGNED_CATEGORY": 0.0
  },
  {
    "COMPOUND": "COc1cc(C2CC(c3ccc(C)cc3)=NN2C=O)ccc1OCCN(C)C (stereo not drawn)",
    "ASSIGNED_CATEGORY": 0.0
  },
  {
    "COMPOUND": "O=C(CNC(=O)c1cccc2ccccc12)Nc1ccccc1Oc1cccc(O)c1",
    "ASSIGNED_CATEGORY": 0.0
  },
  {
    "COMPOUND": "COc1cc(C2CC(C3C(=O)N(C)C(=O)N(C)C3=O)=NN2c2cc(Cl)cc(Cl)c2)cc(OC)c1OC (stereo not drawn)",
    "ASSIGNED_CATEGORY": 0.0
  },
  {
    "COMPOUND": "NC(=O)c1cc(Br)cc(Br)c1NS(=O)(=O)c1ccccc1",
    "ASSIGNED_CATEGORY": 0.0
  }
]

====

Tested on: SK-MEL-28 melanoma
Test: NCI-60 one-dose screen, 48 h (100 = growth as untreated, 0 = no growth, -100 = all killed)
Details: 10 µM unless noted
This is part of a sample that, as a whole, favours compounds with a hit. Of some 83,000 tested, about 20% had one in any assay.
In this section we review reported growth values for a set of molecules.
PARAMETER_MEASURED: growth (%)

[
  {
    "MOLECULE": "NS(=O)(=O)c1ccc(-n2ncc3c(NC4CCCCC4)ncnc32)cc1",
    "UOM": "%",
    "OBSERVED_RESULT": 98
  },
  {
    "MOLECULE": "COc1ccc(-c2ccc(O)c(C(=O)/C=C/c3cc(OC)c(OC)c(OC)c3)c2)cc1",
    "UOM": "%",
    "OBSERVED_RESULT": 104
  },
  {
    "MOLECULE": "O=C(NC1CCS(=O)(=O)C1)c1ccc(C(=O)c2ccccc2)cc1 (centres undefined)",
    "UOM": "%",
    "OBSERVED_RESULT": 89.2
  },
  {
    "MOLECULE": "ICCC(c1ccccc1)(c1ccccc1)c1ccccc1",
    "UOM": "%",
    "OBSERVED_RESULT": -70
  }
]

====

System: MDA-MB-435 melanoma
Assay: NCI-60 one-dose screen, 48 h (100 = growth as untreated, 0 = no growth, -100 = all killed)
Settings: 10 µM unless noted
Compounds without any hit were thinned out: in the full panel of roughly 83,000, 20% have a hit.
In this section we review reported growth values for a set of molecules.
PARAMETER_MEASURED: growth (%)

[
  {
    "MOLECULE": "Cc1[nH]ccc2cc3nc4ccccc4c3cc12",
    "PARAMETER_MEASURED": "growth",
    "OBSERVED_RESULT": 33.9
  },
  {
    "MOLECULE": "Fc1ccccc1C1c2ccccc2-c2nccn21 (configuration not stated)",
    "PARAMETER_MEASURED": "growth",
    "OBSERVED_RESULT": 108
  },
  {
    "MOLECULE": "O=C(N/N=C/c1cccc(O)c1O)c1ccccc1",
    "PARAMETER_MEASURED": "growth",
    "OBSERVED_RESULT": 28.8
  },
  {
    "MOLECULE": "CCSc1nc(Nc2ccc(S(=O)(=O)Nc3ccon3)cc2)c(C#N)c(-c2cccc(Br)c2)n1",
    "PARAMETER_MEASURED": "growth",
    "OBSERVED_RESULT": 102
  },
  {
    "MOLECULE": "NC(=N\\N=C/Cc1ccccc1)/C(N)=N\\N=C\\Cc1ccccc1",
    "PARAMETER_MEASURED": "growth",
    "OBSERVED_RESULT": 107
  },
  {
    "MOLECULE": "COP(=O)(OC)C(c1ccc(O)cc1)(c1ccc(O)cc1)c1ccc(O)cc1",
    "PARAMETER_MEASURED": "growth",
    "OBSERVED_RESULT": 118
  },
  {
    "MOLECULE": "Cc1csc(C#Cc2cncc(O)c2)n1",
    "PARAMETER_MEASURED": "growth",
    "OBSERVED_RESULT": 96.8
  }
]

====

In this section we review reported growth values for a set of molecules.
Tested on: NCI-H460 lung
Assay: NCI-60 one-dose screen, 48 h (100 = growth as untreated, 0 = no growth, -100 = all killed)
Conditions: 10 µM unless noted
Compounds without any hit were thinned out: in the full panel of roughly 83,000, 20% have a hit.

[
  {
    "MOLECULE": "OCCN1CCN(CCCN2c3ccccc3Sc3ccc(C(F)(F)F)cc32)CC1",
    "UOM": "%",
    "growth": 6.79
  },
  {
    "MOLECULE": "CCCCCN1C(=O)CCC1=O",
    "UOM": "%",
    "growth": 120
  },
  {
    "MOLECULE": "FC(F)(F)c1cc(-c2nnc3n2N=C(N2CCCC2)CS3)cc(C(F)(F)F)c1",
    "UOM": "%",
    "growth": 58.1
  },
  {
    "MOLECULE": "Cc1ccccc1NC(=O)NC(CC(N)=O)c1ccc2c(c1)nc(-c1cccc(Oc3ccc(C(C)(C)C)cc3)c1)n2CCCN1CCCCC1C (configuration not stated)",
    "UOM": "%",
    "growth": -30.7
  },
  {
    "MOLECULE": "O=C1c2cc3c(cc2-c2c1c1ccc(Cl)cc1c(=O)n2CCCNCCO)OCO3",
    "UOM": "%",
    "growth": -75.4
  },
  {
    "MOLECULE": "COc1cc(/C=C\\C(C)=N\\Nc2ccccc2)ccc1O",
    "UOM": "%",
    "growth": 111
  },
  {
    "MOLECULE": "C=C1CCC2C(C)(COC(=O)CC)C(OC(=O)CC)CCC2(C)C1C/C=C1/C(=O)OCC1OC(=O)CC (configuration not stated)",
    "UOM": "%",
    "growth": 79.6
  },
  {
    "MOLECULE": "O=c1c2c(=NCCCN3CCCC3)cc3c(=O)n(CCCN4CCCC4)c(=O)c4c(NCCCN5CCCC5)cc(c(O)n1CCCN1CCCC1)c2c4-3",
    "UOM": "%",
    "growth": -32.1
  },
  {
    "MOLECULE": "COc1cc(C(=O)c2cc3c(cc2C)OCO3)cc(OC)c1OC",
    "UOM": "%",
    "growth": 8.71
  },
  {
    "MOLECULE": "O=[N+]([O-])c1ccc(N=Nc2c(Cl)cc(O)cc2Cl)cc1",
    "UOM": "%",
    "growth": -4.31
  },
  {
    "MOLECULE": "COc1ccc(-c2nnc3c4[nH]cnc4ncn23)c(OC)c1",
    "UOM": "%",
    "growth": 39.4
  },
  {
    "MOLECULE": "O=C(CN1CCN(c2ccc(Cl)cc2)CC1)N1CCN(c2nnc(-c3ccccc3)c(-c3ccccc3)n2)CC1",
    "UOM": "%",
    "growth": 30.7
  }
]
